Test system: R. solani
Assay: microbe, parasite or virus in culture
Format: cell-based
Conditions: Rhizoctonia solani, read-out: The Inhibition Rate (%) R. solani
Entries and their measured inhibition at 50 µg/mL follow.

{"MOLECULE": "Clc1ccc(/C=C/c2nc(-c3ccccc3)no2)cc1 [Compound 5c]", "inhibition at 50 µg/mL": "< 10%"}
{"MOLECULE": "COc1ccc(-c2nc(-c3ccccc3)no2)cc1OC [Compound 4b]", "inhibition at 50 µg/mL": "18.7%"}
{"MOLECULE": "COc1ccc(-c2noc(-c3ccc(OC)c(OC)c3)n2)cc1 [Compound 4k]", "inhibition at 50 µg/mL": "22.6%"}
{"MOLECULE": "FC(F)(F)c1ccc(-c2nc(-c3ccccc3)no2)cc1 [Compound 4h]", "inhibition at 50 µg/mL": "< 10%"}
{"MOLECULE": "COc1ccc(-c2noc(-c3cccc(O)c3)n2)cc1OC [Compound 4o]", "inhibition at 50 µg/mL": "24.4%"}
{"MOLECULE": "COc1cc(-c2noc(-c3cccc(O)c3)n2)cc(OC)c1OC [Compound 4v]", "inhibition at 50 µg/mL": "< 10%"}
{"MOLECULE": "COc1ccc(-c2noc(/C=C/c3ccccc3)n2)cc1OC [Compound 5e]", "inhibition at 50 µg/mL": "23.9%"}
{"MOLECULE": "COc1ccc(-c2noc(-c3ccc(C(C)(C)C)cc3)n2)cc1 [Compound 4l]", "inhibition at 50 µg/mL": "< 10%"}

Every entry's value here was drawn from paper PMC12029309.
